Test: Solubility
Type: physicochemical
Conditions: disodium salt; water; read-out: aqueous solubility
REPORTED PROPERTY: solubility (mg/mL)
Hi! Could you send only the number? It should be in mg/mL, unit omitted.

Specify measured solubility for O=C(OCOP(=O)(O)O)c1ccc2nc(-c3cc(Cl)cc(Cl)c3)oc2c1.[Na+].[Na+] [CAP4357] .
25

---

Target: AAC (Homo sapiens)
Sequence (P02489 whole entry): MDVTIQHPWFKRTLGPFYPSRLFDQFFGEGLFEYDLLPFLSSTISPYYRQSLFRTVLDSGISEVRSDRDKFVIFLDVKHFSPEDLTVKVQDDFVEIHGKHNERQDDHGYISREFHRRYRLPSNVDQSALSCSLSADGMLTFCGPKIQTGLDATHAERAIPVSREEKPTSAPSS
Assay: UV-induced aggregation of hAAC, measured by absorbance
Type: biochemical
Settings: read-out: EC50 for the prevention of hACC aggregation (as restated in Example 7)
REPORTED PROPERTY: EC50 (µM)
Hi! Could you send only the number? It should be in µM, unit omitted.

Specify measured EC50 for O=C(O)c1ccc2nc(-c3cc(Cl)cc(Cl)c3)oc2c1 .
19.5
